- STUDY_TARGET: NAD-dependent histone deacetylase SIR2 (Saccharomyces cerevisiae S288c)
- ASSAY_METHOD_TEXT: In vitro inhibition of sirtuin 2 was evaluated using yeast whole cell lysates at 75 uM; values are per cent of control
Below, each of the molecules is paired with its reported residual activity value.
OBSERVABLE: residual activity (%)

molecule=O=C1CCc2c(c(OCc3ccccc3)cc3ccccc23)O1 observable="residual activity" reading_unit=% reported_measurement=17
molecule=OCCCc1c(O)ccc2ccccc12 observable="residual activity" reading_unit=% reported_measurement=88
molecule=O=C1CCc2c(ccc3ccccc23)O1 observable="residual activity" reading_unit=% reported_measurement=66
molecule=O=C1OC(=O)c2cccc3cccc1c23 observable="residual activity" reading_unit=% reported_measurement=94
molecule="O=C1CC(c2ccccc2)c2c(ccc3ccccc23)O1 (configuration not stated)" observable="residual activity" reading_unit=% reported_measurement=90
molecule="C=CCC1Cc2c(ccc3ccccc23)OC1=O (configuration not stated)" observable="residual activity" reading_unit=% reported_measurement=86
molecule=CCN(CC)C(=O)CCc1c(O)ccc2ccccc12 observable="residual activity" reading_unit=% reported_measurement=88
